normalized growth for assorted compounds
Experiment Description: chemical genetic growth profiling, strain panel (AID 1159580);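 also: tested at 20 µM; growth read once vehicle control cultures reached saturation at 30 °C; 1 = growth at the plate median or of vehicle wells; lower values mean less growth of the strain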
Experimental Setup: S. cerevisiae deletion strains, growth OD, locus YGL253W, strain hxk2, active compounds read low
Screen size: about 5,500 compounds; about 2,000 (36%) were called active. Not shown: some 18% with an inconclusive outcome. This is one part of the list.

Compound	normalized growth
Cc1ccc(-c2cc(C(F)(F)F)nn2-c2ccc(S(N)(=O)=O)cc2)cc1	1.02
CC(C)=CCCC1(C)C=Cc2c(O)c3c(c(CC=C(C)C)c2O1)OC12C(=CCCC1C(C)(C)O[C@@]2(C/C=C(\C)C(=O)O)C(=O)O)C3=O (stereo not given in full)	0.85
CCCOc1ccccc1-c1nc2n[nH]nc2c(=O)[nH]1	1.01
O=c1[nH]cc(F)c(=O)[nH]1	0.328
CC1(C)CC[C@]2(C)CC[C@]3(C)C(=CCC4[C@@]5(C)CC[C@H](O)C(C)(C)C5CC[C@]43C)C2C1 (stereo not given in full)	0.993

* * *

Experiment Description: chemical genetic growth profiling, strain panel (AID 1159580)
Experimental Setup: S. cerevisiae deletion strains, growth OD, locus YLR039C, strain RIC1
About 2,000 (36%) of roughly 5,500 compounds were called active. Inconclusive results (about 18%) are left out. No stated cut-off is given here; in the data, active means normalized growth mostly below about 0.91 (no sharp cut-off); inconclusive means no clear call, values can overlap the other calls; inactive means mostly above about 0.92. The list shows a part of the results.
Possible outcomes: 1 for active, -1 for inactive

Molecule	Category Label
CCc1cc2c(cc1C(=O)CC1(O)C(=O)Nc3ccc(Br)cc31)C(C)(C)CCC2(C)C (configuration not stated)	-1
CNC(=O)O/N=C\C(C)(C)SC	-1
O=C(Nc1ccc(Cl)c(Cl)c1)c1ccccc1	1
O=C(Nc1ccc(Br)cc1Cl)C(Cl)(Cl)Cl	1
Cc1c(Br)sc2ccc(Cl)cc12	1
Cc1cc(=O)n2[nH]cc(C#N)c2n1	-1
COC(=O)c1cccc(NC(=O)CC2C(=O)NCCN2C(=O)c2cccs2)c1 (configuration not stated)	-1
S=C(NCc1ccccc1)Nc1ccc(Cl)c(Cl)c1	1
Nc1ccc(S(=O)(=O)Nc2ccnn2-c2ccccc2)cc1	-1
O=C1c2c(O)cccc2Cc2cccc(O)c21	-1
CC(C)(C)c1nccc(-c2nn(-c3ccc(F)cc3)ccc2=O)n1	-1
S=C(NCc1cccnc1)Nc1ccccc1Cl	-1

* * *

Experiment Description: chemical genetic growth profiling, strain panel (AID 1159580)
Experimental Setup: S. cerevisiae deletion strains, growth OD, locus YBR009C, strain hhf1, active compounds read low
Among all 5,500 compounds or so, about 2,000 (36%) were called active. Inconclusive results (about 18%) are left out. This is one part of the list.
normalized growth for assorted compounds

Compound	normalized growth
CC(C)(Sc1cc(C(C)(C)C)c(O)c(C(C)(C)C)c1)Sc1cc(C(C)(C)C)c(O)c(C(C)(C)C)c1	1.02
COc1cc(N)c(Cl)cc1C(=O)NC1CCN(Cc2ccccc2)CC1	0.999
CCC(C)C(=O)O[C@H]1[C@H](O)C2C(CN3CC(C)CCC3[C@@]2(C)O)C2C[C@]34O[C@]5(O)C(OC(=O)C(C)(O)CC)CC[C@@]3(C)C5C(OC(C)=O)[C@@H](OC(C)=O)C4[C@@]21O (stereo not given in full)	1.02
CC1=NS(=O)(=O)c2cc(Cl)ccc2N1	0.984
CCCCCCCCCCCCCCC(C(=O)O)C(O)(CC(=O)OC)C(=O)O (stereo not given)	0.955
COC(=O)C[C@H]1C(C)(C)C2(O)OC34CC2C(=O)[C@]1(C)C3CC[C@]1(C)C4=CC(=O)O[C@H]1c1ccoc1 (stereo not given in full)	1.01
CC(C)(C#N)O[C@@H]1O[C@H](CO)[C@@H](O)[C@H](O)[C@H]1O	1
Cc1cc(C(C)(C)C)c(O)c(C(C)(C)C)c1	0.91
O=C(CNC(=O)c1ccc(Cl)cc1)NO	1.01
O=C(O)CC(O)(CC(=O)O)C(=O)O	1

* * *

Experiment Description: chemical genetic growth profiling, strain panel (AID 1159580);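 also: tested at 20 µM; growth read once vehicle control cultures reached saturation at 30 °C; 1 = growth at the plate median or of vehicle wells; lower values mean less growth of the strain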
Experimental Setup: S. cerevisiae deletion strains, growth OD, locus YOR061W, strain CKA2, active compounds read low
Out of some 5,500 compounds screened, about 2,000 (36%) were called active. Not shown: some 18% with an inconclusive outcome. The list shows a part of the results.
normalized growth for assorted compounds

Compound	normalized growth
Cc1cn([C@H]2C[C@H](N=[N+]=[N-])[C@@H](CO)O2)c(=O)[nH]c1=O	1.01
O=C(c1ccc(Cl)cc1)N(Cc1ccccc1)Cc1cccnc1	0.828
O=S(=O)(c1ccc(Cl)cc1)N(Cc1cccnc1)Cc1ccc(Cl)cc1Cl	0.787
COc1cc(C(=O)O[C@H]2CC[C@@]3(C)[C@@H]4CC[C@H]5[C@]6(O)C[C@H](O)[C@@]7(O)[C@@H](CN8C[C@@H](C)CC[C@H]8[C@@]7(C)O)[C@]6(O)C[C@@]53O[C@]24O)cc(OC)c1OC	0.962
C/C=C(/C)C(=O)OC1CCC2(C)C3CCC4C5(O)CC(O)C6(O)C(CN7CC(C)CCC7C6(C)O)C5(O)CC42OC13O (configuration not stated)	0.975
COc1c(CC(=O)c2cc3c(cc2O)OC(C)(C)C(O)C3)ccc2c1C=CC(C)(C)O2 (configuration not stated)	0.996
C[C@@H]1OC(O[C@H]2[C@H](OC(=O)[C@]34CCC(C)(C)CC3C3=CCC5[C@@]6(C)CC[C@H](OC7O[C@@H](C)[C@H](O[C@@H]8OC[C@@H](O)[C@H](O)[C@H]8O)[C@@H](O)[C@H]7O)C(C)(C)C6CC[C@@]5(C)[C@]3(C)CC4O)OC[C@H](O)[C@H]2O)[C@H](O)[C@H](O)[C@H]1O[C@@H]1O[C@H](CO)[C@@H](O)[C@H](O)[C@H]1O (some centres not stated)	0.59

* * *

Experiment Description: chemical genetic growth profiling, strain panel (AID 1159580);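 also: tested at 20 µM; growth read once vehicle control cultures reached saturation at 30 °C; 1 = growth at the plate median or of vehicle wells; lower values mean less growth of the strain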
Experimental Setup: S. cerevisiae deletion strains, growth OD, locus YOR069W, strain VPS5, active compounds read low
Among all 5,500 compounds or so, about 2,000 (36%) were called active. Another 18% or so got no clear call; they are omitted. The list shows a part of the results.
normalized growth for assorted compounds

Compound	normalized growth
C/C=C(/C)C(=O)O[C@@H]1[C@H](OC(C)=O)[C@@]2(CO)C(CC1(C)C)C1=CCC3[C@@]4(C)CC[C@H](O[C@@H]5O[C@H](C(=O)O)[C@@H](O[C@@H]6O[C@H](CO)[C@@H](O)[C@H](O)[C@H]6O)[C@H](O)[C@H]5O[C@@H]5O[C@H](CO)[C@@H](O)[C@H](O)[C@H]5O)[C@](C)(CO)C4CC[C@@]3(C)[C@]1(C)C[C@H]2O (some centres not stated)	1
CNCc1ccccc1	1
C[C@H]1[C@H](C)CC[C@]2(CO)CC[C@]3(C)C(=CCC4[C@@]5(C)CC[C@H](O)C(C)(C)C5CC[C@]43C)[C@H]12 (some centres not stated)	1.01
Clc1ccccc1C(c1ccccc1)(c1ccccc1)n1ccnc1	0.0473
C=C/C(C)=C\CC1C(C)(O)CCC2C(C)(C)CCCC21C (configuration not stated)	0.078
CCC(C)C(=O)O[C@H]1[C@H](O)C2C(CN3CC(C)CCC3[C@@]2(C)O)C2C[C@]34O[C@]5(O)C(OC(=O)C(C)(O)CC)CC[C@@]3(C)C5C(OC(C)=O)[C@@H](OC(C)=O)C4[C@@]21O (some centres not stated)	1.01
COc1ccc2[nH]cc(CCN)c2c1	0.983
CC1=CCC2C3(C)C1=CC(=O)OC3CC1C(C)(C)CC(O)C(O)C12C (configuration not stated)	1.01
NCCC(=O)N[C@@H](Cc1cnc[nH]1)C(=O)O	0.993
CC(C)(Sc1cc(C(C)(C)C)c(O)c(C(C)(C)C)c1)Sc1cc(C(C)(C)C)c(O)c(C(C)(C)C)c1	0.987
COc1ccc2c3c([nH]c2c1)C(C)=NCC3	1.01
Cc1cc(C(C)(C)C)c(O)c(C(C)(C)C)c1	0.997
Nc1c2c(nc3ccccc13)CCCC2	1.01
CC(C)=CCCC1(C)C=Cc2c(O)c3c(c(CC=C(C)C)c2O1)OC12C(=CC4CC1C(C)(C)OC2(C/C=C(/C)C(=O)O)C4O)C3=O (configuration not stated)	0.979
CC1(C)CC[C@]2(C(=O)O)CC[C@]3(C)C(=CCC4[C@@]5(C)CC[C@@H](O)C(C)(C)C5CC[C@]43C)C2C1 (some centres not stated)	1.02
CC(=O)/C=C\[C@@H]1[C@@]2(C)CCCC(C)(C)C2CC[C@@]1(C)O (some centres not stated)	0.977
C/C=C1\[C@H]2C=C(C)C[C@]1(N)c1ccc(=O)[nH]c1C2	1.01

* * *

Experiment Description: chemical genetic growth profiling, strain panel (AID 1159580);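 also: tested at 20 µM; growth read once vehicle control cultures reached saturation at 30 °C; 1 = growth at the plate median or of vehicle wells; lower values mean less growth of the strain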
Experimental Setup: S. cerevisiae deletion strains, growth OD, locus YOR001W, strain rrp6
The whole screen tested about 5,500 compounds, of which about 2,000 (36%) were called active. Inconclusive results (about 18%) are left out. Rule as the data show it: active = normalized growth mostly below about 0.91 (no sharp cut-off); inconclusive = no clear call, values can overlap the other calls; inactive = mostly above about 0.92. The list shows a part of the results.
Possible outcomes: TRUE (active), FALSE (inactive)

Compound	Category Label
Cc1cc(-n2c(=O)[nH]c(=O)n(C)c2=O)ccc1Oc1ccc(SC(F)(F)F)cc1	TRUE
Cc1cc(O)ccc1Cl	FALSE
NCCC(=O)N[C@@H](Cc1cnc[nH]1)C(=O)O	FALSE
Cc1cc(O)cc(O)c1C(=O)O	FALSE
CCC(C)C(=O)O[C@H]1[C@H](O)C2C(CN3CC(C)CCC3[C@@]2(C)O)C2C[C@]34O[C@]5(O)C(OC(=O)C(C)(O)CC)CC[C@@]3(C)C5C(OC(C)=O)[C@@H](OC(C)=O)C4[C@@]21O (stereo not given in full)	FALSE
